assay: soluble on expression in E. coli; label from the status in PepcDB or PDB records
MEASURED PROPERTY: soluble on expression in E. coli

MSTLELHHIGKSYQSVMVLDRIDLHVPPGSRTAIVGPSGSGKTTLLRIIAGFETPDAGKVILQGKAMFDGTTYVPAHKRGIGFVPQDGALFPHFTVAGNIGYGLKGSQRDKERRINELMDMVALDRRLSALWPHEISGGQQQRVALARALAQRPVLMLLDEPFSALDTALRASTRKAVAELLSEANIASILVTHDQTEALSFADQVAVMRAGKLAHVGPPQELYLRPVDEPTATFLGETLMLTAQLGTGLAHCALGQVKVDNPHRRGEARIMLRPEQITLTPLRPEQYNAASCLAKVIAIDFAGFISTLTLQIISSGETIEIKTISREDLHVGLTVGLDIMGQAHIFAE :: not soluble
MKQLMIEASTPLCQLQDAGRFGVRHLGVTQGGALDWVAMHWANWLLGNPLGAPVVEVALGGFCVVAEQDCVLALAGADLDACVDDQPLAPWRSFALAKGQRLTLKQPKVGVRAYLAAPGGFLGEDVLGSCATVVREALGGIDGQGAALAKHQALAFTGSNAPLREVPQALCPQFAQKPVLDLVMGAQIGEFSGTSLFEAFNREWTLDSRADRMGIRLLGPQLVYQGAPMISEGIPLGAVQVPPDGQPIVLLNDRQTIGGYPRLGALTPLALAQLAQCMPGTVVRFRAVVQDEAWREQQLYLGRWS :: not soluble

----------
test: soluble on expression in E. coli; label from the status in PepcDB or PDB records
MEASURED PROPERTY: soluble on expression in E. coli

MSLDSSLFRKPSPRPLRQPTTPFHLQKTLILDLDETLIHSTSRPIHYPGGSSGGGGLLGLSVGGVFGSGRANEGHTVEVVVNGRSTMYHVYKRPYVDHFLKKVASWYTLVIFTASMPEYADPVIDWLDGGRNLFARKLYRENCHVQPNGSYIKDLTLVEKDLSRVCFMDNSPVSYSWNKGRLFSTWRSLEPDRMGTANALPIEGWTSDPNDEALLHSIPVLDSLRFVNDVRRVLGIRGAARARSEGHHHHHH :: soluble
MLPDSSVRLNKYISESGICSRREADRYIEQGNVFLNGKRATIGDQVKPGDVVKVNGQLIEPREAEDLVLIALNKPVGIVSTTEDGERDNIVDFVNHSKRVFPIGRLDKDSQGLIFLTNHGDLVNKILRAGNDHEKEYLVTVDKPITEEFIRGMSAGVPILGTVTKKCKVKKEAPFVFRITLVQGLNRQIRRMCEHFGYEVKKLERTRIMNVSLSGIPLGEWRDLTDDELIDLFKLIENSSSEVKPKAKAKPKTAGIKRPVVKMEKTAEKGGRPASNGKRFTSPGRKKKGRLEHHHHHH :: soluble

----------
assay: soluble on expression in E. coli; label from the status in PepcDB or PDB records
MEASURED PROPERTY: soluble on expression in E. coli

MGSDKIHHHHHHMAFNFGCLNSPETVSSALATRENSLGLAIDPFLAPVAMVATQDIVLRQYFRERIVLGQENLPMQGPVLLAPTHRSRWDALMLPMAAGRRVTGRDCRFMVTVDEMKGLQGWFLHRLGCFPVNQSKPSLTSLRYAIDLMADGQQVVVFPEGTINRTEKPIKLYQGLARLAQLAKSQNIDVQVVPVGLGYSEVIPKACGRASICFAEPMKVLETGREAVKSFNAELSEKMHAAEQAALHAVGRLKKAP :: not soluble
MISTPLSKEFEWPAKPVSLELQHQVEQFYYREAQLLDHHAFQAWFALLAEDIHYWMPIRTVRTAREQGLEYVPAGANAHFDDTHATMYGRIRQKTSDLNWAEDPPSRTRHLVSNVIVREMDTPGTLEVASAFLLYRSRLERQVDVFAGERRDVLRIADNPLGFQIAKRTIILDQSTVLANNLSVFF :: soluble
MGSDKIHHHHHHMQLKRMGYAQTKIRQGPNHRDGEQVTFLDVKQFFGLGHVRVGSWVSSEESLIAANMVFDALADLALVLGLPPKVMGLRERLNLAFGHGGQQGVMAHYSPSERTLALAKHAGAGAVAHEFWHAFDHHLSDTAMDIGRSQKARFASELWLNDVPLLCHPLNDRLEALFQSVLLSGDGEHPSDYVRRAIQLDKTYGRLYFSHPSELMARAFEAAIESEGDFEQVDTDSGEIHLLPLINPYLVTGTLEDIKTENKGELLPKFGSWGAMPQGAFPTPIHRQAIMKAMAGYFRPLGRALAKTLS :: not soluble
MEGGFGSDFGGSGSGKLDPGLIMEQVKVQIAVANAQELLQRMTDKCFRKCIGKPGGSLDNSEQKCIAMCMDRYMDAWNTVSRAYNSRLQRERANM :: not soluble
MAHHHHHHMCTTNLENLVVDSVTRTGNNNASNTFLGDVLLASNKESQNITQYHPGVSSKDQPDVCGDVRYSFADIADIIRGTDVWSKQSQQMLLQGYLEQTFGKIKDKFKGTEKYDSDSHHPQIL :: not soluble
MNAQRVVVMGLGNLLWADEGFGIRVAERLYARYHWPEEVEIVDGGTQGLNLLGYVEQASHLLLLDAIDYGLAPGSLRTYAGEKIPAYLSAKKMSLHQNSFSEVLALADIRGHLPCHIALVGLQPALLDDYGGSLSEIARSQLPAAEQAALAQLAAWGIVPQANEVARCLNYKCLSMENYEGVRIRQYQTRLEGKRSGE :: not soluble
MLRKQVYLTPEEEAKLKRLARATGRTEAEILRLALDLLPEEEAPLLLALAEEGLLEVPERAVTPARMEEAYRRYLDRVAGRGLGLSKAVLADREGR :: soluble
MTDNQSKSLELILTDSDDAHMLLGTHDKHIKFLEENTHVTINSRGEVIQLIGESSEVELVASVLRALQTLIQRGIKVHTPDVVSALKMAKAGNLEAFIAMYEEEIMKDHHGRAIRIKNVGQKKYIDAVKTHDVIFGVGPAGTGKTFLAVVMAVAALKKGEVQKIILTRPAVEAGESLGFLPGDLKEKVDPYLRPVYDALYQIFGMDHTNRLMERGVIEIAPLAYMRGRTLDDAFVILDEAQNTTVAQMKMFLTRLGFSSKMIVNGDTSQIDLPRGVTSGLVNAERTLKDIEKIAFVNFEASDVVRHPVVAQIIQAYEKEQQKHS :: not soluble
MAGKWNVLSLLAFRPCQPALPHDNHGGGMDAIYLKLDGIEGESRIKGFENQIKLIAYNHNPTKRESGEARGTYIGGLTLTKPVDLATPGLYEHYCNGKTVKEGVLTLCRRDKGAMLPFIIYTLTNVRISRMSNHGDAEGSATETVDLVYSHIRWDIPALASKSKTRRPLHRQALWR :: not soluble
MGSDKIHHHHHHMSISLATISGRVHAGERISDEEALFLFESRDPLAVGELAAAVNRRRNGDRVFFNVNRHINHTNICVNRCSFCAFYRAADEPGAYLYDLEEIRNRAAEAHAQGATEIHIVGGLHPDLPFDFYLAMLRTVKEVSPDLHVKAFTAVEIEYLSRLAGLSTAETLTVLKEAGLGSLPGGGAEIFAPAVRNRLCPEKISGDKWLAIMEEVHRAGLKSNATMLYGHIESYADRVDHMRRLRELQDRTGGFQVFIPLAFQKDNNPLGHLKRPGPGGVDALLTLAVARIYLDNFANIKAYWVMLGVKIAQTSLAFGVNDLDGTVVEEKIGHDAGAASPQTMGRDEIVSLIRTAGRVPVERDTLYNELRVY :: not soluble

// sample MAGYVGDVAIAYDRDLGHVLFEQYASDIARRTAGKPVRDVLEVASGTGIVTRQLRNVLPGDAQLTAIDISDSMMEVARTKFLPHEQVTFQVANAVALPFDDRAFDTVVCQFGVMFFDKDKAFQETHRVLRQGGRYLFSVWDSRDYNPYASLTFEVMKQFFPSDPPRFLESTVSSFEIDPVKERLIRAGFEQISISVQRRIYDIPDIRAFARGLIFSPIINEIRERGEVDPDDIVEALVKIFIGEYGSNPTRFPMQAILFETEKPLEHHHHHH , its soluble on expression in E. coli was not soluble

// sample MGSDKIHHHHHHMKFPRKGIPQEEVMRELEKYTSKDLSFSSGKILGSMCTLPHELAKEVFCMYMDRNLGDPGLHPGTKKIEEEVIEMLSDLLHLERGYGHIVSGGTEANILAVRAFRNLADVENPELILPKSAHFSFIKAGEMLGVKLIWADLNPDYTVDVKDVEAKISENTIGIVGIAGTTGLGVVDDIPALSDLARDYGIPLHVDAAFGGFVIPFAKELGYDLPDFDFKLKGVQSITIDPHKMGMAPIPAGGIVFRHKKYLRAISVLAPYLAGGKIWQATITGTRPGASVLAVWALIKHLGFEGYMEIVDRAMKLSRWFAEEIKKTPGAWLVREPMLNIVSFKTKNLRRVERELKSRGWGISAHRGYIRIVSHASCDGGHD , its soluble on expression in E. coli was not soluble
